Target: D2 DAR (Homo sapiens (Human), UniProt P14416)
Sequence (P14416 whole entry): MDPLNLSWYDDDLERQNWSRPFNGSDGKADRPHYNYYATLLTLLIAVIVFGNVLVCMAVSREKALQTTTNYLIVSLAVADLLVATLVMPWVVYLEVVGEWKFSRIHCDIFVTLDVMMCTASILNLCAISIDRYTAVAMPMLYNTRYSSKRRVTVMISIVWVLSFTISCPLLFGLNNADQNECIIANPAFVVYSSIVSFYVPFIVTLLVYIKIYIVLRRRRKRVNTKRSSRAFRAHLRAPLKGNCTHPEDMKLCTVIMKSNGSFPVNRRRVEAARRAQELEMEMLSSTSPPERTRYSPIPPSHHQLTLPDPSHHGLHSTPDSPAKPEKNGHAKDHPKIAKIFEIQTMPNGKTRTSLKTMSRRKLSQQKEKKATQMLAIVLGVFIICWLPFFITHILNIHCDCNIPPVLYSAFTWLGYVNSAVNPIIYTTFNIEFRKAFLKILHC
Format: cell-based
Conditions: β-arrestin recruitment, antagonist
attribute_measured: D2 IC50

Cc1cccc2[nH]c(C(=O)N3CCN(CCOc4cccnc4)CC3)cc12 [Compound 24] = None
O=C(c1cc2c(Cl)cccc2[nH]1)N1CCN(CCOc2cccnc2)CC1 [Compound 18] = None
COc1ccc(C(=O)N2CCN(CCOc3ccc4c(c3)OCO4)CC2)cc1 = None
O=C(c1cc2ccccc2o1)N1CCN(CCOc2cccnc2)CC1 [Compound 10] = None
COc1cccc(OCCN2CCN(C(=O)c3cc4cc(OC)ccc4[nH]3)CC2)c1 [Compound 67] = None
COc1ccc2[nH]c(C(=O)N3CCN(CCOc4cccnc4)CC3)cc2c1 [Compound 72] = none

What does the record list as D2 IC50 for COc1ccc2[nH]c(C(=O)N3CCN(CCOc4cccnc4)CC3)cc2c1 [Compound 28] ?
None

What measured D2 IC50 goes with O=C(c1nc2ccccc2[nH]1)N1CCN(CCOc2cccnc2)CC1 ?
None

Fill in the blank: the reported D2 IC50 of COc1ccc(OCCC2CCN(C(=O)c3ccc(OC)cc3)CC2)cc1 is ____.
none

D2 IC50 for Cc1ccc2[nH]c(C(=O)N3CCN(CCOc4cccnc4)CC3)cc2c1 [Compound 25] ?
None

Any idea what D2 IC50 was measured for COc1ccc(OCCN2CCN(CC(=O)c3cc4ccccc4[nH]3)CC2)cc1 ?
none

Origin of measurements: patent US11634404B2
